Here, each record is paired with measured pIC50 data.
TARGET_ENTITY: Recombinant human c-KIT kinase (Homo sapiens, UniProt P10721)
Sequence (P10721 544-976 limits assumed): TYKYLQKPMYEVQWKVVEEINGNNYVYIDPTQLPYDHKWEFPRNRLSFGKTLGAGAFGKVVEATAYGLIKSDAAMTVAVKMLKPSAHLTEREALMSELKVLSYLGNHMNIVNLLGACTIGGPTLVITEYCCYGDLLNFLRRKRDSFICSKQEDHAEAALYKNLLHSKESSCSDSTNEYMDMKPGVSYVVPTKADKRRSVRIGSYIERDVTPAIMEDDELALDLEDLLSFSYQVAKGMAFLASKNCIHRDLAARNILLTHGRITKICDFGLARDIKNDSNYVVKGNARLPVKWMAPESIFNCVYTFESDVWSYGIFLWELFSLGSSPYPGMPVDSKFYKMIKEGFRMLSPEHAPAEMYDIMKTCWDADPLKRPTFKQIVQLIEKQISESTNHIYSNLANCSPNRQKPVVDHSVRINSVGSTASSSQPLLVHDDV
EXPERIMENT_DESCRIPTION: c-KIT kinase chemiluminescence assay (ADP-Glo)
CONDITION_PARAMETERS: ATP 50 μM
pIC50: −log10 of the molar value.

Check out these entries, answers already filled in.
[[record]]
compound = "Cc1ncc(-c2nnn(CCC(F)(F)F)n2)cc1NC(=O)c1cnn2ccc(N3CC4(C3)CC(O)(C(F)F)C4)cc12"
target_entity = "Recombinant human c-KIT kinase (Homo sapiens, UniProt P10721)"
metric = "pIC50"
recorded_measurement = "6.00 to 7.00"

[[record]]
compound = "Cc1ccc(-c2noc(C3C[C@@H]3F)n2)cc1NC(=O)c1cnc(-c2cnc(N3CC(O)(C(F)(F)F)C3)nc2)o1 (stereo partly drawn)"
target_entity = "Recombinant human c-KIT kinase (Homo sapiens, UniProt P10721)"
metric = "pIC50"
recorded_measurement = "< 6.00"

[[record]]
compound = "Cc1ccc(-c2noc([C@H]3C[C@@H]3F)n2)cc1NC(=O)c1cnc(-c2ccc3nn(CC(C)(C)O)c(C)c3c2)o1 [Example 21a]"
target_entity = "Recombinant human c-KIT kinase (Homo sapiens, UniProt P10721)"
metric = "pIC50"
recorded_measurement = "> 7.00"

[[record]]
compound = "Cc1ncc(-c2nnn[nH]2)cc1NC(=O)c1cnn2ccc(N3CC4(C3)CC(O)(C(F)F)C4)cc12"
target_entity = "Recombinant human c-KIT kinase (Homo sapiens, UniProt P10721)"
metric = "pIC50"
recorded_measurement = "< 6.00"

[[record]]
compound = "COC(=O)N1CC(c2nc(-c3cc(NC(=O)c4cnn5ccc(N6CC7(C6)CC(O)(C(F)F)C7)cc45)c(C)s3)no2)C1"
target_entity = "Recombinant human c-KIT kinase (Homo sapiens, UniProt P10721)"
metric = "pIC50"
recorded_measurement = "> 7.00"

[[record]]
compound = "Cc1ncc(-c2nnn(C3CCC(F)(F)CC3)n2)cc1NC(=O)c1cnn2ccc(N3CC4(C3)CC(O)(C(F)F)C4)cc12"
target_entity = "Recombinant human c-KIT kinase (Homo sapiens, UniProt P10721)"
metric = "pIC50"
recorded_measurement = "> 7.00"

[[record]]
compound = "Cc1ncc(-c2nc([C@H]3C[C@@H]3F)cs2)cc1NC(=O)c1cnn2ccc(N3CC4(C3)CC(O)(C(F)F)C4)cc12"
target_entity = "Recombinant human c-KIT kinase (Homo sapiens, UniProt P10721)"
metric = "pIC50"
recorded_measurement = "6.00 to 7.00"

[[record]]
compound = "Cc1ncc(-c2nnn(CC(C)(C)C#N)n2)cc1NC(=O)c1cnn2ccc(N3CC4(C3)CC(O)(C(F)F)C4)cc12"
target_entity = "Recombinant human c-KIT kinase (Homo sapiens, UniProt P10721)"
metric = "pIC50"
recorded_measurement = "6.00 to 7.00"


INPUT: Provide pIC50, tested on Recombinant human c-KIT kinase (Homo sapiens, UniProt P10721), for O=C(Nc1cc(-c2ncc(C3CC3)cn2)ccc1C(F)F)c1cnn2ccc(N3CC4(C3)CC(O)(C(F)F)C4)cc12 .
OUTPUT: 6.00 to 7.00

INPUT: Report the value of pIC50 obtained on Recombinant human c-KIT kinase (Homo sapiens, UniProt P10721) for Cc1ncc(-c2noc(C3C[C@@H]3C(F)F)n2)cc1NC(=O)c1ccc(NC(=O)OC(C)(C)C)nc1 (stereo partly drawn) .
OUTPUT: < 6.00

INPUT: For Recombinant human c-KIT kinase (Homo sapiens, UniProt P10721), give the measured pIC50 of the entry COCCn1nnc(-c2cnc(C)c(NC(=O)c3cnn4ccc(N5CC6(C5)CC(O)(C(F)F)C6)cc34)c2)n1
OUTPUT: 6.00 to 7.00

INPUT: // fetch pIC50 for Cc1ccc(-c2noc([C@H]3C[C@@H]3F)n2)cc1NC(=O)c1cnc(-c2cnc(N)nc2)o1 ; system: Recombinant human c-KIT kinase (Homo sapiens, UniProt P10721)
OUTPUT: < 6.00

INPUT: Provide pIC50, system Recombinant human c-KIT kinase (Homo sapiens, UniProt P10721), entry Cc1ncc(-c2nnn(C[C@H](O)C(F)F)n2)cc1NC(=O)c1cnn2ccc(N3CC4(C3)CC(O)(C(F)F)C4)cc12
OUTPUT: 6.00 to 7.00

INPUT: # return pIC50 of Cc1ccc(-c2noc([C@H]3C[C@@H]3F)n2)cc1NC(=O)c1ccc(N)nc1 (system: Recombinant human c-KIT kinase (Homo sapiens, UniProt P10721))
OUTPUT: < 6.00

INPUT: Under Recombinant human c-KIT kinase (Homo sapiens, UniProt P10721): report pIC50 of Cc1ncc(-c2noc([C@H]3C[C@@H]3F)n2)cc1NC(=O)c1cnc(-c2ccc3c(c2)c(C)nn3CC(C)(C)O)o1 [Example 22a] .
OUTPUT: 6.00 to 7.00

INPUT: Given Cc1ccc(-c2nc([C@H]3C[C@@H]3F)cs2)cc1NC(=O)c1cnn2ccc(N3CC4(COC4)C3)cc12 , report its pIC50 on Recombinant human c-KIT kinase (Homo sapiens, UniProt P10721).
OUTPUT: > 7.00

INPUT: Using Recombinant human c-KIT kinase (Homo sapiens, UniProt P10721) as the test system, report measured pIC50 of Cc1cc(F)c(-c2noc(C3CC(OC(F)F)C3)n2)cc1NC(=O)c1cnn2ccc(N3CC4(COC4)C3)cc12 (stereo not drawn) .
OUTPUT: 6.00 to 7.00

INPUT: Under Recombinant human c-KIT kinase (Homo sapiens, UniProt P10721): report pIC50 of Cc1ncc(-c2noc(N3CC(O)(C(F)(F)F)C3)n2)cc1NC(=O)c1cnn2ccc(N3CC4(C3)CC(O)(C(F)F)C4)cc12 .
OUTPUT: < 6.00

* * *

Catalogue of molecules with associated IC50
TARGET_ENTITY: Recombinant human c-KIT kinase (Homo sapiens, UniProt P10721)
EXPERIMENT_DESCRIPTION: c-KIT kinase chemiluminescence assay (ADP-Glo)
CONDITION_PARAMETERS: ATP 50 μM

# example entries with known answers
[[record]]
molecule = "COCCn1nc(C)c(-c2ccc3c(C(=O)Nc4cc(-c5noc([C@H]6C[C@@H]6F)n5)ccc4C)cnn3c2)c1C"
recorded_measurement = "< 100 nM"

[[record]]
molecule = "Cc1ncc(-c2nnn(C[C@@H](O)C(F)(F)F)n2)cc1NC(=O)c1cnn2ccc(N3CC4(C3)CC(O)(C(F)F)C4)cc12"
recorded_measurement = "100 to 1000 nM"

[[record]]
molecule = "Cc1ncc(-c2nnc(C3C[C@@H]3F)o2)cc1NC(=O)c1cnn2ccc(N3CC4(C3)CC(O)(C(F)F)C4)cc12 (stereo partly shown)"
recorded_measurement = "100 to 1000 nM"

[[record]]
molecule = "Cc1nc(N)nc(C)c1-c1ccn2ncc(C(=O)Nc3cc(-c4noc([C@H]5C[C@@H]5F)n4)sc3C)c2c1"
recorded_measurement = "> 1000 nM"

[[record]]
molecule = "Cc1nn(-c2ccc(C3CC3)cc2)cc1NC(=O)c1cnn2ccc(N3CC4(COC4)C3)cc12"
recorded_measurement = "> 1000 nM"

[[record]]
molecule = "Cc1nc(N)nc(C)c1-c1ccn2ncc(C(=O)Nc3cc(-c4noc([C@H]5C[C@@H](OC(F)(F)F)C5)n4)sc3C)c2c1"
recorded_measurement = "> 1000 nM"


INPUT: Give IC50 for Cc1ncc(-c2ncc(OC(F)(F)F)cn2)cc1NC(=O)c1cnn2ccc(N3CC4(C3)CC(O)(C(F)F)C4)cc12 tested on Recombinant human c-KIT kinase (Homo sapiens, UniProt P10721).
OUTPUT: 100 to 1000 nM

* * *

TARGET_ENTITY: Recombinant human c-KIT kinase (Homo sapiens)
EXPERIMENT_DESCRIPTION: c-KIT kinase chemiluminescence assay (ADP-Glo)
CONDITION_PARAMETERS: ATP 50 μM
pIC50: −log10 of the molar value.
Listed below: pIC50 values for each entry.

Take a look at these entries with their results.
[[record]]
molecule = "Cc1ccc(-c2noc(C3C[C@@H]3C(F)F)n2)cc1NC(=O)c1ccc(NC(=O)OC(C)(C)C)nc1 (stereo partly shown) [Example 398]"
recorded_measurement = "< 6.00"

[[record]]
molecule = "Cc1ncc(-c2noc([C@H]3C[C@@H]3C(F)F)n2)cc1NC(=O)c1cnn2ccc(-c3c(C)nc(N)nc3C)cc12 [Example 391]"
recorded_measurement = "< 6.00"

[[record]]
molecule = "Cc1ncc(-c2noc([C@H]3C[C@@H]3C(F)F)n2)cc1NC(=O)c1ccc(N)nc1 [Example 401]"
recorded_measurement = "< 6.00"


Next, consider the following molecule.
INPUT: Determine its reported pIC50: Cc1ncc(-c2noc(C3CC(OC(F)F)C3)n2)cc1NC(=O)c1cnn2ccc(N3CC4(C3)CC(O)(C(F)F)C4)cc12 (stereo not shown) [Example 281-44]
OUTPUT: > 7.00

Cited source for all entries: patent US20250304600A1
